Cited source for all entries: the nanobody polyreactivity screen of Harvey et al. (2022)

Experimental protocol: yeast display, Sf9 membrane polyspecificity reagent, FACS + sequencing; frameworks hold sequencing errors
Readout kind: polyreactivity (PSR sort gate)

Examples from the recorded data:
>>> result("QVQLVESGGGLVQAGGSLRLSCAASGSIFGPYAMGWYRQAPGKERELVAAISRGSRTNYADSVKGRFTISRDNAKNTVYLQMNSLKPEDTAVYYCAARYVWRSTHHRGSTYDYWGQGTQVTVSS")
"high polyreactivity"
>>> result("QVQLVESGGGLVQAGGSLRLSCAASGRIFKNYVMGWYRQAPGKERELVAAITYSGGSTRYADSVKGRFTISRDNAKNTVYLQMNSLKPEDTAVYYCAASRTYYRTYTFYYWGQGTQVTVSS")
"high polyreactivity"
>>> result("QVQLVESGGGLVQAGGSLRLSCAASGSSFRVYAMGWSRQAPGKERELVASISRRGGSTYYADSVKGRFTISRDNAKTTVYIQMNSLKPEDTAVYYCNVPYYSFRDVSSYYSGQGTQVTVSS")
"high polyreactivity"
>>> result("QVQLVESGGGLVQAGGSLRLSCAASGRTFLVYALGWYRQAPGKERELVAGITSGGGTYYADSVKGRFTISRDNAMNTVYLQINSLKPEETAVYYCAKYRWYGVYWGQVTQVTVSS")
"low polyreactivity"
>>> result("QVQIEESGGGLVQAGGSLRLSCAASGLIFGSYVMGWYRQAPGKERELVAAITVRTGTTYYADSVKGRFTISRDNAKNTVYLKMNSLKPEDTAVYYCALRYRPKYGYWGQGTQVTVSS")
"high polyreactivity"

Input: polyreactivity (PSR sort gate) lookup needed for QVQLVESGGGLVQAGGRLRLSCAASGSTFPKYAMGWYRQAPGKERELVASISVTTGSTYYADSVKGRFTISRDNAKNTVYLQMNSLKPEDTAVYYCAKRTYSRKFRGAYNYWGQGTQVTVSS , thanks.
Output: high polyreactivity

Input: Can you look up the measured polyreactivity (PSR sort gate) of QVQLVESGGCLVQAGGSLRLSCAASGRIFSSYAMGWYRQAPGKERELVAAIRSSGDRTYYADSVKGRFTISRDNAKNTVYFQMNSLKPEDTAVYYCAADLRRFQSYYYWGQGTQVTVSS for me?
Output: high polyreactivity

Input: Consider the sequence shown here: HVQLVESGGGLVQAGGSLRESCAASGRTFDDIAMGRYRQAPGKERELVAAINWSGASTYYADSVKGRFTISRDNAKNTVYLQMNSLKPEDTAVYYCAAVFWKSDSAYYEYGYWGQGTQVTVSS What is its recorded polyreactivity (PSR sort gate)?
Output: low polyreactivity

Input: Record request: polyreactivity (PSR sort gate) value, item QVQLVETGGGLVQAGGSLRLSCAASGRTFGYYTMGCYRQAPGKERELVAGISSAGSTNYADSVKGRFTISRDNAKNTVYLQMNSLKPADTAVYYCAARTYKVIQNNSWETYYYWGQGTQVTVSS
Output: high polyreactivity
